molecular target: HIV protease (Human immunodeficiency virus type 1 group M subtype B, UniProt P04585); construct: HIV protease was expressed in E. coli; assay: Recombinant HIV Protease HPLC Assay; settings: recombinant HIV protease expressed in E. coli; substrate VSFNFPQITL-NH2; pH 5.5; 37°, 30 min; read-out: IC50, concentration of the test compound which causes a 50% inhibition of the HIV-protease
Reported IC50 by item:
Lab book: enter the figure in µM, no units written.

CC(C)[C@H](NC(=O)OCc1ccccc1)C(=O)N[C@@H](Cc1ccccc1)[C@H](O)CN1C[C@H](OCc2ccccc2)C[C@H]1C(=O)NC(C)(C)C	0.016
CC(C)(C)NC(=O)[C@@H]1C[C@@H](OCc2ccccc2)CN1C[C@@H](O)[C@H](Cc1ccccc1)NC(=O)[C@H](CC(N)=O)NC(=O)OCc1ccccc1	0.039

--- query ---
Please report the recorded IC50 for `Cc1cccc(C)c1OCC(=O)N[C@@H](Cc1ccccc1)[C@H](O)CN1C[C@H](Sc2ncccn2)C[C@H]1C(=O)NC(C)(C)C` .
0.0046

----------
molecular target: HIV protease (Human immunodeficiency virus type 1 group M subtype B, UniProt P04585); construct: HIV protease was expressed in E. coli; experiment: Recombinant HIV Protease HPLC Assay; conditions: recombinant HIV protease expressed in E. coli; substrate VSFNFPQITL-NH2; pH 5.5; 37°, 30 min; read-out: IC50, concentration of the test compound which causes a 50% inhibition of the HIV-protease
MEASURED_PROPERTY: IC50 (nM)
Respond numerically; units are nM and should not be typed.

CC(C)(C)NC(=O)[C@@H]1C[C@H](Cc2ccccc2)CN1C[C@@H](O)[C@H](Cc1ccccc1)NC(=O)[C@H](CC(N)=O)NC(=O)OCc1ccccc1	780
CC(C)CO[C@@H]1C[C@@H](C(=O)NC(C)(C)C)N(C[C@@H](O)[C@H](Cc2ccccc2)NC(=O)[C@@H](NC(=O)OCc2ccccc2)C(C)C)C1	180
CC(C)[C@H](NC(=O)c1ccc2ccccc2n1)C(=O)N[C@@H](Cc1ccccc1)[C@H](O)CN1C[C@H](Sc2ncccn2)C[C@H]1C(=O)NC(C)(C)C	4.7
CC(C)CO[C@H]1C[C@@H](C(=O)NC(C)(C)C)N(C[C@@H](O)[C@H](Cc2ccccc2)NC(=O)[C@@H](NC(=O)OCc2ccccc2)C(C)C)C1	745

// below: IC50 requested for another compound
If you can, please state the reported IC50 value of `CC(C)(C)NC(=O)[C@@H]1C[C@H](OCc2ccccc2)CN1C[C@@H](O)[C@H](Cc1ccccc1)NC(=O)[C@H](CC(N)=O)NC(=O)OCc1ccccc1` .
300

----------
target: HIV protease (Human immunodeficiency virus type 1 group M subtype B, UniProt P04585); construct: HIV protease was expressed in E. coli; experiment: Recombinant HIV Protease HPLC Assay; settings: recombinant HIV protease expressed in E. coli; substrate VSFNFPQITL-NH2; pH 5.5; 37°, 30 min; read-out: IC50, concentration of the test compound which causes a 50% inhibition of the HIV-protease
MEASURED_PROPERTY: log10 IC50 (log10 of the value in nM)
Hey, these are logged values: log10 of IC50, nM being the unit before logging.

Recorded results for 4 compounds are shown here.
CC(C)[C@H](NC(=O)c1ccc2ccccc2n1)C(=O)N[C@@H](Cc1ccccc1)[C@H](O)CN1C[C@H](SCc2cccnc2)C[C@H]1C(=O)NC(C)(C)C [Table I Entry 11]	1.08
Cc1cccc(C)c1OCC(=O)N[C@@H](Cc1ccccc1)[C@H](O)CN1C[C@H](SCc2cccnc2)C[C@H]1C(=O)NC(C)(C)C [Entry 14]	1.63
CC(C)[C@H](NC(=O)OCc1ccccc1)C(=O)N[C@@H](Cc1ccccc1)[C@H](O)CN1C[C@H](OCc2ccccc2)C[C@H]1C(=O)NC1CC1 [Table I Entry 7]	2.00
Cc1cc(O[C@@H]2C[C@@H](C(=O)NC(C)(C)C)N(C[C@@H](O)[C@H](Cc3ccccc3)NC(=O)[C@@H](NC(=O)c3ccc4ccccc4n3)C(C)C)C2)nc(C)n1 [Table I Entry 12]	0.97

Consider the additional compound presented here.
Recorded log10 IC50 for CC(C)(C)NC(=O)[C@@H]1C[C@@H](Cc2ccccc2)CN1C[C@@H](O)[C@H](Cc1ccccc1)NC(=O)[C@H](CC(N)=O)NC(=O)OCc1ccccc1 [Table I Entry 8] , please?
1.68
